# System: Human venous whole blood
# EXPERIMENT_DESCRIPTION: Human whole blood IFN-γ assay;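 note: blood from healthy donors exposed to compound for 1 h before stimulation with anti-CD3 and anti-CD28 at 1 µg/mL each, IFN-γ quantified in supernatant by AlphaLISA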
# Format: cell-based
# TEST_SETTINGS: Homo sapiens, 24 h, human whole blood, anti-CD3 plus anti-CD28, 24 hours; 3 μM reference compound = 100% activation; read-out: INFg Whole Blood Normalized Agonist EC50
PARAMETER: EC50 (µM)
Answer in µM, number only, no unit symbol.

MOLECULE | EC50, µM
Cc1cc(C)cc(CN2CCN(c3c(C#N)c(=O)n(C)c4ccc(C#N)nc34)C[C@H]2C)c1 | 4
Cc1c(F)cccc1CN1CCN(c2c(C#N)c(=O)n(C)c3ccc(C#N)nc23)C[C@H]1C | 2
CC(c1ccc(F)c(F)c1)N1CCN(c2c(C#N)c(=O)n(C)c3ccc(C#N)nc23)C[C@H]1C (stereo partly shown) | 4

Incoming: Answer with reported EC50 of Cc1ccc(C(c2cccc(Cl)c2)N2CCN(c3c(C#N)c(=O)n(C)c4ccc(C#N)nc34)C[C@H]2C)nc1 (single isomer, unassigned)
Outgoing: 1.7
